system: THRa homodimer (NR concentration 90 nM); assay: PBM binding z-score (relative to random genomic background probes); higher = stronger binding; sequences stand for … in GC…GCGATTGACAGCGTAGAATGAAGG
Kindly state PBM binding z-score for each of the entries shown.
Give bare numbers.

Consider the reported PBM binding z-score for these sequences:
Seq text	PBM binding z-score
TGAATGAGGTTATAAGATTAGGGAACGTTGCAAA	0.15
TCAGACAGGTGAAGGTAACTCAAGTACGCAGTCG	0.516
CCTCGGAGGACAGAGGGTCAGAGCTGTCCGCTTT	-0.314
GCTCGGAGGACCAGGTCAGAGCTTTGTCCGTAGA	0.402
CGTCCAAGGTCTTAGGAGGTCAGTGAAGACAGAT	1.15

Each of the following entries comes with a recorded value; kindly state PBM binding z-score for each.
1. CCTGCTAGGTCGATGGTCAGCTAAAGCAGCTCGC
2. CCTACTGGGCCACGAGAGGTCATTGATTCAGTGA
3. CTGCCTAGGTCAGGGCCAGTATAGGAGGAACGTT

Solution:
-0.265
1.33
0.182
